# TESTED ON: human TAS1R2-R317G/TAS1R3-WT (Homo sapiens, UniProt Q7RTX0+Q8TE23, R317G)
# Construct: expressed in transfected cells; host or cells: HEK293T-Gα16gust44
# Sequence (Q8TE23 20-839 R317G, one chain of several): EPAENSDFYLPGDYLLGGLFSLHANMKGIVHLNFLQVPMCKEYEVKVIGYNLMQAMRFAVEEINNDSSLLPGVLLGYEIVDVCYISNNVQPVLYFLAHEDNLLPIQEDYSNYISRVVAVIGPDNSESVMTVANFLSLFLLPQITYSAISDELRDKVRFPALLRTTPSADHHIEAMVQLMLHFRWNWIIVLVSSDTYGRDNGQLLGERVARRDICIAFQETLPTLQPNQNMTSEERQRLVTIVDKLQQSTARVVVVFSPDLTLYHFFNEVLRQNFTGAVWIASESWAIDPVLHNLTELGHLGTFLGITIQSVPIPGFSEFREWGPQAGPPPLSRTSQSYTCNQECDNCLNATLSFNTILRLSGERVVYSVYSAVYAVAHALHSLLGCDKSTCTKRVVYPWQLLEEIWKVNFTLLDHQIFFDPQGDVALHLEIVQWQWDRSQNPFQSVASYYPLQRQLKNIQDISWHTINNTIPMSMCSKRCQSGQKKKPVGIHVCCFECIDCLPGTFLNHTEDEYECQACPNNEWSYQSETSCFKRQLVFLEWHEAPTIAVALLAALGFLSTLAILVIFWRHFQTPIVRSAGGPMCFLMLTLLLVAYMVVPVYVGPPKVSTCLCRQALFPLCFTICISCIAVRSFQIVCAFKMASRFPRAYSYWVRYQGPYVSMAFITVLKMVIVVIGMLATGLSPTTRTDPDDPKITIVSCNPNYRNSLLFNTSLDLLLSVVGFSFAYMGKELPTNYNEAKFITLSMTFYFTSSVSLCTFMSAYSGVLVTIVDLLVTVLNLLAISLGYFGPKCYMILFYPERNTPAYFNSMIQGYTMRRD
# ASSAY METHOD TEXT: Calcium mobilisation assay, TAS1R2 variant R317G with TAS1R3-WT
# Format: cell-based
# ASSAY SETUP: maximal signal amplitude
Listing: Max ΔF/F0 of selected compounds

COMPOUND	Max ΔF/F0
COC(=O)[C@H](Cc1ccccc1)NC(=O)[C@H](CC(=O)O)NCCC(C)(C)C	0.56 ± 0.03
OC[C@H]1O[C@H](O[C@]2(CCl)O[C@H](CCl)[C@@H](O)[C@@H]2O)[C@H](O)[C@@H](O)[C@H]1Cl	0.80 ± 0.05
C[C@H](CC[C@@H](O[C@@H]1O[C@H](CO[C@@H]2O[C@H](CO)[C@@H](O)[C@H](O)[C@H]2O)[C@@H](O)[C@H](O)[C@H]1O[C@@H]1O[C@H](CO)[C@@H](O)[C@H](O)[C@H]1O)C(C)(C)O)[C@H]1CC[C@@]2(C)[C@@H]3CC=C4[C@@H](CC[C@H](O[C@@H]5O[C@H](CO[C@@H]6O[C@H](CO)[C@@H](O)[C@H](O)[C@H]6O)[C@@H](O)[C@H](O)[C@H]5O)C4(C)C)[C@]3(C)[C@H](O)C[C@]12C [Mogroside V, mogroside V]	1.34 ± 0.03
COc1ccc(CCC(=O)c2c(O)cc(O[C@@H]3O[C@H](CO)[C@@H](O)[C@H](O)[C@H]3O[C@@H]3O[C@@H](C)[C@H](O)[C@@H](O)[C@H]3O)cc2O)cc1O [NHDC, neohesperidin dihydrochalcone]	0.85 ± 0.02
C=C(C)[C@@H]1CC=C(/C=N/O)CC1	1.53 ± 0.03
CC1=CC(=O)NS(=O)(=O)O1	0.46 ± 0.02
C=C1C[C@@]23CC[C@H]4[C@@](C)(CCC[C@@]4(C)C(=O)O[C@@H]4O[C@H](CO)[C@@H](O)[C@H](O[C@@H]5O[C@H](CO)[C@@H](O)[C@H](O)[C@H]5O)[C@H]4O[C@@H]4O[C@H](CO)[C@@H](O)[C@H](O)[C@H]4O)[C@@H]2CC[C@]1(O[C@@H]1O[C@H](CO)[C@@H](O)[C@H](O[C@@H]2O[C@H](CO)[C@@H](O)[C@H](O)[C@H]2O)[C@H]1O[C@@H]1O[C@H](CO)[C@@H](O)[C@H](O)[C@H]1O)C3 [Rebaudioside M, rebaudioside M]	1.23 ± 0.01

* * *

# TESTED ON: human TAS1R2-I595T/TAS1R3-WT (Homo sapiens, UniProt Q7RTX0+Q8TE23, I595T)
# Sequence (Q8TE23 20-839 I595T, one chain of several): as the sequence (Q8TE23 20-839 R317G, one chain of several) above, with G298R, I576T counted along it
# ASSAY METHOD TEXT: Calcium mobilisation assay, TAS1R2 variant I595T with TAS1R3-WT
# ASSAY SETUP: "-": no activation

COMPOUND	UNIT SPEC	EC50
C=C(C)[C@@H]1CC=C(/C=N/O)CC1 [Perillartine, perillartine]	µM	53.2
O=S(=O)(O)NC1CCCCC1 [Cyclamate, cyclamate]	µM	2030
COC(=O)[C@H](Cc1ccccc1)NC(=O)[C@H](CC(=O)O)NCCC(C)(C)C [Neotame]	µM	1.27
CC1=CC(=O)NS(=O)(=O)O1 [Acesulfame K, acesulfame K]	µM	300
C=C1C[C@@]23CC[C@H]4[C@@](C)(CCC[C@@]4(C)C(=O)O[C@@H]4O[C@H](CO)[C@@H](O)[C@H](O[C@@H]5O[C@H](CO)[C@@H](O)[C@H](O)[C@H]5O)[C@H]4O[C@@H]4O[C@H](CO)[C@@H](O)[C@H](O)[C@H]4O)[C@@H]2CC[C@]1(O[C@@H]1O[C@H](CO)[C@@H](O)[C@H](O[C@@H]2O[C@H](CO)[C@@H](O)[C@H](O)[C@H]2O)[C@H]1O[C@@H]1O[C@H](CO)[C@@H](O)[C@H](O)[C@H]1O)C3 [Rebaudioside M, rebaudioside M]	µM	35.8
COc1ccc(CCC(=O)c2c(O)cc(O[C@@H]3O[C@H](CO)[C@@H](O)[C@H](O)[C@H]3O[C@@H]3O[C@@H](C)[C@H](O)[C@@H](O)[C@H]3O)cc2O)cc1O [NHDC, neohesperidin dihydrochalcone]	µM	70.3
C[C@H](CC[C@@H](O[C@@H]1O[C@H](CO[C@@H]2O[C@H](CO)[C@@H](O)[C@H](O)[C@H]2O)[C@@H](O)[C@H](O)[C@H]1O[C@@H]1O[C@H](CO)[C@@H](O)[C@H](O)[C@H]1O)C(C)(C)O)[C@H]1CC[C@@]2(C)[C@@H]3CC=C4[C@@H](CC[C@H](O[C@@H]5O[C@H](CO[C@@H]6O[C@H](CO)[C@@H](O)[C@H](O)[C@H]6O)[C@@H](O)[C@H](O)[C@H]5O)C4(C)C)[C@]3(C)[C@H](O)C[C@]12C [Mogroside V, mogroside V]	µM	31.4
OC[C@H]1O[C@H](O[C@]2(CCl)O[C@H](CCl)[C@@H](O)[C@@H]2O)[C@H](O)[C@@H](O)[C@H]1Cl [Sucralose]	µM	108

* * *

# TESTED ON: human TAS1R2-P21L/TAS1R3-WT (Homo sapiens, UniProt Q7RTX0+Q8TE23, P21L)
# Sequence (Q8TE23 20-839 P21L, one chain of several): as the sequence (Q8TE23 20-839 R317G, one chain of several) above, with P2L, G298R counted along it
# ASSAY METHOD TEXT: Calcium mobilisation assay, TAS1R2 variant P21L with TAS1R3-WT
MEASURE: EC50

COMPOUND	MEASURED RESULT
C=C(C)[C@@H]1CC=C(/C=N/O)CC1 [Perillartine, perillartine]	26.3 µM
O=S(=O)(O)NC1CCCCC1 [Cyclamate, cyclamate]	2110 µM
CC1=CC(=O)NS(=O)(=O)O1 [Acesulfame K, acesulfame K]	374 µM
OC[C@H]1O[C@H](O[C@]2(CCl)O[C@H](CCl)[C@@H](O)[C@@H]2O)[C@H](O)[C@@H](O)[C@H]1Cl [Sucralose]	80 µM
C=C1C[C@@]23CC[C@H]4[C@@](C)(CCC[C@@]4(C)C(=O)O[C@@H]4O[C@H](CO)[C@@H](O)[C@H](O[C@@H]5O[C@H](CO)[C@@H](O)[C@H](O)[C@H]5O)[C@H]4O[C@@H]4O[C@H](CO)[C@@H](O)[C@H](O)[C@H]4O)[C@@H]2CC[C@]1(O[C@@H]1O[C@H](CO)[C@@H](O)[C@H](O[C@@H]2O[C@H](CO)[C@@H](O)[C@H](O)[C@H]2O)[C@H]1O[C@@H]1O[C@H](CO)[C@@H](O)[C@H](O)[C@H]1O)C3 [Rebaudioside M, rebaudioside M]	19.5 µM

* * *

# TESTED ON: human TAS1R2-R317P/TAS1R3-WT (Homo sapiens, UniProt Q7RTX0+Q8TE23, R317P)
# Construct: expressed in transfected cells; host or cells: HEK293T-Gα16gust44
# Sequence (Q8TE23 20-839 R317P): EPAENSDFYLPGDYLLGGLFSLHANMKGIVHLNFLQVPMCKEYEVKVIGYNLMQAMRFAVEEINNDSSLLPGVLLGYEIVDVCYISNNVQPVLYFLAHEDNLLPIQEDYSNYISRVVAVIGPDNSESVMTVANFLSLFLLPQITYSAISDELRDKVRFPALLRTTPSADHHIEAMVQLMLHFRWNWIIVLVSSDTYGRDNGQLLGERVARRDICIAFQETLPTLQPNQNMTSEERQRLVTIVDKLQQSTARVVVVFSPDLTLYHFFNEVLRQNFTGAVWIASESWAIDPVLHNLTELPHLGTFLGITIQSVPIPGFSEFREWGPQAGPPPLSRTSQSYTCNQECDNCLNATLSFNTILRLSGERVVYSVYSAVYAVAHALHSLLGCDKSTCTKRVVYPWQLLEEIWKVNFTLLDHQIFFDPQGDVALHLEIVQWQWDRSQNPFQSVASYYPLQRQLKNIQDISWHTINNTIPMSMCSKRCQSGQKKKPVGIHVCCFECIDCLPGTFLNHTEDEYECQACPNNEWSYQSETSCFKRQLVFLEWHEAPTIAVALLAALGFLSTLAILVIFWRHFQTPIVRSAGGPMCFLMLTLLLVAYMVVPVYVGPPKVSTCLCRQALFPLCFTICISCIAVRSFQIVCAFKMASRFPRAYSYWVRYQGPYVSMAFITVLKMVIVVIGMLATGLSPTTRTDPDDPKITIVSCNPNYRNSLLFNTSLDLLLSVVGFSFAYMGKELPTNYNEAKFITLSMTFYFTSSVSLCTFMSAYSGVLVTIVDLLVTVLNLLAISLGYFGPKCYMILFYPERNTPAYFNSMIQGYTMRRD
# Sequence (Q7RTX0 21-852): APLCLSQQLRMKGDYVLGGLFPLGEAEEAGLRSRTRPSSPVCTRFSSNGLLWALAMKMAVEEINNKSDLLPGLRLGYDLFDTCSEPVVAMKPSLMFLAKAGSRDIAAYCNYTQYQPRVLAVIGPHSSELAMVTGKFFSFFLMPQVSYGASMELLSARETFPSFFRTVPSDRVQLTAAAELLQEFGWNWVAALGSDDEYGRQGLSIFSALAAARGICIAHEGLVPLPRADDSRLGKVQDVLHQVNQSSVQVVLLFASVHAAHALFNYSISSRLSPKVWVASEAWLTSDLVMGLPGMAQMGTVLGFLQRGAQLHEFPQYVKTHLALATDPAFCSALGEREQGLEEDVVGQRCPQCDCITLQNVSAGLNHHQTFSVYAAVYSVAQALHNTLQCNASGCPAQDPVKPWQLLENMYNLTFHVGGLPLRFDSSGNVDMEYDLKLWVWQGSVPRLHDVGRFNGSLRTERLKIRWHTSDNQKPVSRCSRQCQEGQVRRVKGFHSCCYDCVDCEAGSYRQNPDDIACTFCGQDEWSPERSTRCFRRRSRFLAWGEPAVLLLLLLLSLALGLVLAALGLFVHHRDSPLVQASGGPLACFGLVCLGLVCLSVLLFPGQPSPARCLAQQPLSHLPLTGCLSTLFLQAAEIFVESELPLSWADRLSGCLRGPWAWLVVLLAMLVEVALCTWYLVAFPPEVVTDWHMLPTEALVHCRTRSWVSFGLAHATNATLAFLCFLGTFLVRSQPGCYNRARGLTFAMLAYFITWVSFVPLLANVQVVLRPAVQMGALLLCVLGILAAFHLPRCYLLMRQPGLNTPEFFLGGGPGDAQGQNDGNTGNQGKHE
# ASSAY METHOD TEXT: Calcium mobilisation assay, TAS1R2 variant R317P with TAS1R3-WT
# Format: cell-based
# ASSAY SETUP: maximal signal amplitude
Listing: Max ΔF/F0 of selected compounds
MEASURE: Max ΔF/F0

COMPOUND	MEASURED RESULT
COc1ccc(CCC(=O)c2c(O)cc(O[C@@H]3O[C@H](CO)[C@@H](O)[C@H](O)[C@H]3O[C@@H]3O[C@@H](C)[C@H](O)[C@@H](O)[C@H]3O)cc2O)cc1O [NHDC, neohesperidin dihydrochalcone]	0.58
CC1=CC(=O)NS(=O)(=O)O1	0.42
COC(=O)[C@H](Cc1ccccc1)NC(=O)[C@H](CC(=O)O)NCCC(C)(C)C	0.63
C=C1C[C@@]23CC[C@H]4[C@@](C)(CCC[C@@]4(C)C(=O)O[C@@H]4O[C@H](CO)[C@@H](O)[C@H](O[C@@H]5O[C@H](CO)[C@@H](O)[C@H](O)[C@H]5O)[C@H]4O[C@@H]4O[C@H](CO)[C@@H](O)[C@H](O)[C@H]4O)[C@@H]2CC[C@]1(O[C@@H]1O[C@H](CO)[C@@H](O)[C@H](O[C@@H]2O[C@H](CO)[C@@H](O)[C@H](O)[C@H]2O)[C@H]1O[C@@H]1O[C@H](CO)[C@@H](O)[C@H](O)[C@H]1O)C3 [Rebaudioside M, rebaudioside M]	1.19

* * *

# TESTED ON: human TAS1R2-WT/TAS1R3-WT (Homo sapiens, UniProt Q7RTX0+Q8TE23)
# Construct: expressed in transfected cells; host or cells: HEK293T-Gα16gust44
# Sequence (Q8TE23 20-839, one chain of several): as the sequence (Q8TE23 20-839 R317G, one chain of several) above, with G298R counted along it
# ASSAY METHOD TEXT: Calcium mobilisation assay, HEK293T-Gα16gust44 cells, human sweet taste receptor WT
# Format: cell-based
# ASSAY SETUP: TAS1R2-WT/TAS1R3-WT; read-out: EC50
pEC50: −log10 of the molar value.
Please mark yes (1) if the recorded pEC50 is equal to or greater than 4, and no (0) if it falls below.

COMPOUND	TESTED ON	CLASSIFICATION
COC(=O)[C@H](Cc1ccccc1)NC(=O)[C@H](CC(=O)O)NCCC(C)(C)C [Neotame]	human TAS1R2-WT/TAS1R3-WT (Homo sapiens, UniProt Q7RTX0+Q8TE23)	yes (1)
C[C@H](CC[C@@H](O[C@@H]1O[C@H](CO[C@@H]2O[C@H](CO)[C@@H](O)[C@H](O)[C@H]2O)[C@@H](O)[C@H](O)[C@H]1O[C@@H]1O[C@H](CO)[C@@H](O)[C@H](O)[C@H]1O)C(C)(C)O)[C@H]1CC[C@@]2(C)[C@@H]3CC=C4[C@@H](CC[C@H](O[C@@H]5O[C@H](CO[C@@H]6O[C@H](CO)[C@@H](O)[C@H](O)[C@H]6O)[C@@H](O)[C@H](O)[C@H]5O)C4(C)C)[C@]3(C)[C@H](O)C[C@]12C [Mogroside V, mogroside V]	human TAS1R2-WT/TAS1R3-WT (Homo sapiens, UniProt Q7RTX0+Q8TE23)	yes (1)
COc1ccc(CCC(=O)c2c(O)cc(O[C@@H]3O[C@H](CO)[C@@H](O)[C@H](O)[C@H]3O[C@@H]3O[C@@H](C)[C@H](O)[C@@H](O)[C@H]3O)cc2O)cc1O [NHDC, neohesperidin dihydrochalcone]	human TAS1R2-WT/TAS1R3-WT (Homo sapiens, UniProt Q7RTX0+Q8TE23)	yes (1)
CC1=CC(=O)NS(=O)(=O)O1 [Acesulfame K, acesulfame K]	human TAS1R2-WT/TAS1R3-WT (Homo sapiens, UniProt Q7RTX0+Q8TE23)	no (0)
O=S(=O)(O)NC1CCCCC1 [Cyclamate, cyclamate]	human TAS1R2-WT/TAS1R3-WT (Homo sapiens, UniProt Q7RTX0+Q8TE23)	no (0)
C=C1C[C@@]23CC[C@H]4[C@@](C)(CCC[C@@]4(C)C(=O)O[C@@H]4O[C@H](CO)[C@@H](O)[C@H](O[C@@H]5O[C@H](CO)[C@@H](O)[C@H](O)[C@H]5O)[C@H]4O[C@@H]4O[C@H](CO)[C@@H](O)[C@H](O)[C@H]4O)[C@@H]2CC[C@]1(O[C@@H]1O[C@H](CO)[C@@H](O)[C@H](O[C@@H]2O[C@H](CO)[C@@H](O)[C@H](O)[C@H]2O)[C@H]1O[C@@H]1O[C@H](CO)[C@@H](O)[C@H](O)[C@H]1O)C3 [Rebaudioside M, rebaudioside M]	human TAS1R2-WT/TAS1R3-WT (Homo sapiens, UniProt Q7RTX0+Q8TE23)	yes (1)
C=C(C)[C@@H]1CC=C(/C=N/O)CC1 [Perillartine, perillartine]	human TAS1R2-WT/TAS1R3-WT (Homo sapiens, UniProt Q7RTX0+Q8TE23)	yes (1)
